# system_name: Furin (108-574-Tev-Flag-His) enzyme (Homo sapiens, UniProt P09958)
# Construct: Furin (108-574-Tev-Flag-His) enzyme was expressed and purified from CHO cells; TEV cleavage site (C); FLAG (C); His (C); made in house; host or cells: CHO cells
# Sequence (P09958 108-574): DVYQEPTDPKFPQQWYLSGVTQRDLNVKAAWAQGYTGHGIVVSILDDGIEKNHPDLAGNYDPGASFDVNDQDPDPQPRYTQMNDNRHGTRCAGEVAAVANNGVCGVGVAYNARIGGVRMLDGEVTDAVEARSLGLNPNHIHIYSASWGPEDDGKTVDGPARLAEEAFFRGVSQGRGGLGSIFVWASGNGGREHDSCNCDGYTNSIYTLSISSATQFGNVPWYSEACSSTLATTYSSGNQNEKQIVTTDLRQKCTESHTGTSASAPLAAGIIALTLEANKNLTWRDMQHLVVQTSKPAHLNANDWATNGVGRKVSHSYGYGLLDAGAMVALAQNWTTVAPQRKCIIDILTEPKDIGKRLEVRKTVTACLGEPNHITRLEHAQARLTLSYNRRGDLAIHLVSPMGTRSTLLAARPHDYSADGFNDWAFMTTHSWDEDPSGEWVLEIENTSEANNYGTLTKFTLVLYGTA
# protocol_details: Furin enzyme assay
# Type: biochemical
# Description: Reactions were performed in black 384-well polystyrene low volume plates (Greiner). Furin (108-574-Tev-Flag-His) enzyme was expressed and purified from CHO cells. […] Enzyme inhibition is then quantified using an Envision instrument (PerkinElmer). Data were analyzed using AbaseXE 7.3, utilizing a four-parameter curve fit equation. […] Raw counts obtained from the respective plate reader (Perkin Elmer) were captured for data analysis. […] The results were recorded as pXC50 values (−C in the above equation)
Counter-ions that a name gives are not always drawn.
property_label: furin enzyme pIC50

molecule: CN1C2CCC1CN(c1ncc(Oc3cc(CN4CCC(CC(=O)O)CC4)cc(-c4cc(Cl)cc(Cl)c4)n3)cn1)C2
furin enzyme pIC50: 8.9
//
molecule: CCN1CCCN(c2ncc(Oc3cc(CN4CCC(CC(=O)O)CC4)cc(-c4cc(Cl)cc(Cl)c4)n3)cn2)CC1
furin enzyme pIC50: 8.6
//
molecule: CN1CCN(c2ncc(Oc3cc(CN4CCC(NC(N)=O)CC4)cc(-c4cc(Cl)cc(Cl)c4)n3)cn2)CC1
furin enzyme pIC50: 8.2
//
molecule: CNC(=O)OCC1CCN(Cc2cc(Oc3cnc(N4CCN(C(C)CCO)CC4)nc3)nc(-c3cc(Cl)cc(Cl)c3)c2)CC1 (centres unmarked)
furin enzyme pIC50: 9.6
//
molecule: CC(=O)NCC1CCN(Cc2cc(Oc3cnc(N4CCN(CCC(N)=O)CC4)nc3)nc(-c3cc(F)c(F)c(Cl)c3)c2)CC1
furin enzyme pIC50: 8.2
//
molecule: CNCc1cc(Oc2ccc(N3CCNCC3)nc2)cc(-c2cc(Cl)cc(Cl)c2)c1 [Example 98, hydrochloride]
furin enzyme pIC50: 8.7
//
molecule: NC1(CCO)CCN(c2ncc(Oc3cc(CN4CCC(CC(=O)O)CC4)cc(-c4cc(Cl)cc(Cl)c4)n3)cn2)CC1
furin enzyme pIC50: 8.8
//
molecule: CN1CCN(c2cnc(Oc3cc(CN4CCC(CCO)CC4)cc(-c4cc(Cl)cc(Cl)c4)n3)cn2)CC1
furin enzyme pIC50: 8.6
//
molecule: CN1CCN(c2ncc(Oc3cc(CN4CCC(CNC(=O)NS(C)(=O)=O)CC4)cc(-c4cc(Cl)cc(Cl)c4)n3)cn2)CC1
furin enzyme pIC50: 8.7
//
molecule: CC(O)CCN1CCN(c2ncc(Oc3cc(CN4CCC(F)CC4)cc(-c4cc(Cl)cc(Cl)c4)n3)cn2)CC1 (centres unmarked)
furin enzyme pIC50: 7.6
//
molecule: CN1CCN(c2ncc(Oc3cc(CN4CCC(NC(=O)NS(C)(=O)=O)CC4)cc(-c4cc(Cl)cc(Cl)c4)n3)cn2)CC1
furin enzyme pIC50: 8.3
//
molecule: OCCC1CCN(Cc2cc(Oc3cnc(N4CCNCC4)cn3)nc(-c3cc(Cl)cc(Cl)c3)c2)CC1
furin enzyme pIC50: 8.7
//
molecule: CC(=O)NCC1CCN(Cc2cc(Oc3cnc(N4CCN(CCCS(N)(=O)=O)CC4)nc3)nc(-c3cc(Cl)cc(Cl)c3)c2)CC1
furin enzyme pIC50: 9.7
//
molecule: CC(=O)NCC1CCN(Cc2cc(Oc3ccc(N4CCCN(CCC(=O)O)CC4)nc3)nc(-c3cc(Cl)cc(Cl)c3)c2)CC1
furin enzyme pIC50: 10.7

* * *

# system_name: furin (endogenous protease) in U20S cells (Homo sapiens)
# Construct: the endogenous protease cleaves GFP; endogenous in cells; host or cells: U2OS cells transduced with a BacMam reporter
# protocol_details: Furin cell-based assay (image-based, Golgi-targeted GFP with BMP10 furin/PCSK cleavage site)
# experimental_setup: 24-hour incubation, read-out: furin golgi cell pXC50 (converted)
Counter-ions that a name gives are not always drawn.
property_label: EC50 (nM)

compound: CNC(=O)OCC1CCN(Cc2cc(Oc3ccc(N4CCN(CCC(=O)O)CC4)nc3)nc(-c3cc(Cl)cc(Cl)c3)c2)CC1 [Example 77, hydrochloride]
EC50 [nM]: 63.1

A. COC(=O)NCC1(F)CCN(Cc2cc(Oc3cnc(N4CCN(CCC(=O)O)CC4)nc3)nc(-c3cc(Cl)cc(Cl)c3)c2)CC1 [Example 51, hydrochloride]
B. CS(=O)(=O)CCCN1CCN(c2ccc(Oc3cc(CN4CCC(CCC(=O)O)CC4)cc(-c4cc(Cl)cc(Cl)c4)n3)cn2)CC1
Given A and given B , which shows the smaller recorded EC50? Kindly give the label for the entry you pick. B
(B: 25.1 nM, A: 158 nM)

* * *

# system_name: furin (endogenous protease) in U20S cells (Homo sapiens, UniProt P09958)
# Construct: the endogenous protease cleaves GFP; endogenous in cells; host or cells: U2OS cells transduced with a BacMam reporter
# Sequence (P09958 108-794): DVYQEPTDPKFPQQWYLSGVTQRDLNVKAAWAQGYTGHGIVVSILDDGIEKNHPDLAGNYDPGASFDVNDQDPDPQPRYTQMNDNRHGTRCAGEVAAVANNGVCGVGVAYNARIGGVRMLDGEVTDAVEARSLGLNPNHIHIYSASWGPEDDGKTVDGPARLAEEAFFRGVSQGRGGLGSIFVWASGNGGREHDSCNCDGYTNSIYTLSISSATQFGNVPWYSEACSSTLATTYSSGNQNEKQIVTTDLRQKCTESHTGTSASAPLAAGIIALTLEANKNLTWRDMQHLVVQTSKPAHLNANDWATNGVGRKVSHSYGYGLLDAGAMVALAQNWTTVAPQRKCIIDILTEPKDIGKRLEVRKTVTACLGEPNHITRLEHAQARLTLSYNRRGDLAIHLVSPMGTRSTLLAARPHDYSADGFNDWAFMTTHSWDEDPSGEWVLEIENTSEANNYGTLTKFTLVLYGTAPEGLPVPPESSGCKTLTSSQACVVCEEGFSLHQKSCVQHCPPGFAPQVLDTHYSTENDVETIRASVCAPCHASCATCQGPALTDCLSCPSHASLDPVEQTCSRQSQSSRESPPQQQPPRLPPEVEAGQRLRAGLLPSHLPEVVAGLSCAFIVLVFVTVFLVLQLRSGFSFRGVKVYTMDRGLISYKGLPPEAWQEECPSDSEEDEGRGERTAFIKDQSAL
# protocol_details: Furin cell-based assay (image-based, Golgi-targeted GFP with BMP10 furin/PCSK cleavage site);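 further: Read-out is mean GFP fluorescence of Golgi puncta per cell by high-content imaging, retained when furin inhibited, over an eleven-point 0.00017–10 µM series, four-parameter fit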
# experimental_setup: 24-hour incubation, read-out: furin golgi cell pXC50 (converted)
Structures can show the parent of a compound that is named as a salt.
property_label: EC50 (nM)

compound: CNCc1cc(Oc2ccc(NCCCN)nc2)cc(-c2cc(Cl)cc(Cl)c2)c1
reported: 3160

1. CN1CCN(c2ncc(Oc3cc(CN4CCC(CC(=O)O)CC4)cc(-c4cc(Cl)cc(Cl)c4)n3)cn2)CC(C)(O)C1 (stereo not shown)
2. CC(=O)NCC1CCN(Cc2cc(Oc3cnc(N4CCN(C(C)CC(N)=O)CC4)nc3)nc(-c3cc(Cl)cc(Cl)c3)c2)CC1 (stereo not shown) [Example 95, hydrochloride]
3. O=C(O)CCC1CCN(Cc2cc(Oc3ccc(N4CCNCC4)nc3)nc(-c3cc(Cl)cc(Cl)c3)c2)CC1 [Example 3, hydrochloride]
Reorder: EC50, max to min. Reply: labels, ordered per the request. 3, 1, 2
(3: 50.1 nM, 1: 15.8 nM, 2: 1.58 nM)

A. CC(=O)NCC1CCN(Cc2cc(Oc3ccc(N4CCN(CC(C)C(=O)O)CC4)nn3)nc(-c3cc(Cl)cc(Cl)c3)c2)CC1 (stereo not shown)
B. CNC(=O)NCC1(O)CCN(Cc2cc(Oc3cnc(N4CCN(CCC(N)=O)CC4)nc3)nc(-c3cc(Cl)cc(Cl)c3)c2)CC1
Could you point out whether the larger EC50 belongs to A or to B ? Kindly give the label for the entry you pick. A

A. NCCNc1ccc(Oc2cc(CN3CCOCC3)cc(-c3cc(Cl)cc(Cl)c3)c2)cn1 [Example 99, hydrochloride]
B. CNCc1cc(Oc2ccc(N3CCNC(C)(C)C3)nc2)cc(-c2cc(Cl)cc(Cl)c2)c1 [Example 102, hydrochloride]
C. CC(=O)NCC1CCN(Cc2cc(Oc3cnc(N4CCN(CCCS(C)(=O)=O)CC4)nc3)nc(-c3cc(Cl)cc(Cl)c3)c2)CC1
rank_up(items): orders items by reported EC50 in ascending numerical order. Reply: labels, ordered per the request. C, B, A
(C: 1.58 nM, B: 15.8 nM, A: 251 nM)

a. CC(=O)NCC1CCN(Cc2cc(Oc3cnc(N4CCN(CCS(C)(=O)=O)CC4)nc3)nc(-c3cc(Cl)cc(Cl)c3)c2)CC1
b. CN1CCN(c2ncc(Oc3cc(CN4CCC(Cc5nnn[nH]5)CC4)cc(-c4cc(Cl)cc(Cl)c4)n3)cn2)CC1
Given a and given b , which shows the smaller recorded EC50? Kindly give the label for the entry you pick. b

a. COC(=O)NC(=O)CCN1CCN(c2ccc(Oc3cc(CN4CCC(CNC(C)=O)CC4)cc(-c4cc(Cl)cc(Cl)c4)n3)cn2)CC1
b. CN1CCN(c2ncc(Oc3cc(CN4CCC5(CC4)CN(C(=O)CO)C5)cc(-c4cc(Cl)cc(Cl)c4)n3)cn2)CC1
Given a and given b , which shows the smaller recorded EC50? Kindly give the label for the entry you pick. a

* * *

# system_name: Furin (108-574-Tev-Flag-His) enzyme (Homo sapiens)
# Construct: Furin (108-574-Tev-Flag-His) enzyme was expressed and purified from CHO cells; TEV cleavage site (C); FLAG (C); His (C); made in house; host or cells: CHO cells
# protocol_details: Furin enzyme assay
# Assay type: biochemical
# experimental_setup: read-out: furin enzyme pIC50 (converted)
property_label: IC50 (nM)

molecule: CC(=O)NCC1CCN(Cc2cc(Oc3cnc(N4CCN(C(C)CC(=O)O)CC4)nc3)nc(-c3cc(Cl)cc(Cl)c3)c2)CC1 (stereo not shown) [Example 282]
IC50 (nM): 0.2
--
molecule: C[N+](C)([O-])CCC1CCN(Cc2cc(Oc3ccc(N4CCNCC4)nc3)nc(-c3cc(Cl)cc(Cl)c3)c2)CC1 [Example 120]
IC50 (nM): 2
--
molecule: CN1C2CCC1CN(c1ncc(Oc3nc(-c4cc(Cl)cc(Cl)c4)cc(CN4CCC(CC(=O)O)CC4)c3F)cn1)C2 [Example 378]
IC50 (nM): 2
--
molecule: CNC(=O)NCC1CCN(Cc2cc(Oc3cnc(N4CCN(C)CC4)nc3)nc(-c3cc(Cl)cc(Cl)c3)c2)CC1 [Example 70]
IC50 (nM): 0.0316
--
molecule: CC(=O)NCC1CCN(Cc2cc(Oc3cnc(N4CCN(C(C)CCC(=O)O)CC4)nc3)nc(-c3cc(Cl)cc(Cl)c3)c2)CC1 (stereo not shown) [Example 215]
IC50 (nM): 0.398
--
molecule: O=C(O)CC1CCN(Cc2cc(Oc3ccc(N4C[C@@H]5C[C@H]4CN5)nc3)nc(-c3cc(Cl)cc(Cl)c3)c2)CC1 [Example 187]
IC50 (nM): 1.26

I. CN1CCN(c2ncc(Oc3cc(CN4CCC(CC(=O)O)CC4)cc(-c4cc(Cl)cc(Cl)c4)n3)cn2)CC(O)C1 (stereo not shown) [Example 226]
II. CC(=O)NCC1CCN(Cc2cc(Oc3ccc(N4C[C@@H]5C[C@H]4CN5CCS(C)(=O)=O)nc3)nc(-c3cc(Cl)cc(Cl)c3)c2)CC1 [Example 183]
III. CC(=O)NCC1CCN(Cc2cc(Oc3cnc(N4CC5CCC(C4)N5C)nc3)nc(-c3cc(Cl)cc(Cl)c3)c2)CC1 [Example 71]
IV. CC(=O)NCC1CCN(Cc2cc(Oc3cnc(N4CCN(CCC5(C(=O)O)CC5)CC4)nc3)nc(-c3cc(Cl)cc(Cl)c3)c2)CC1 [Example 173]
rank_up(items): orders items by reported IC50 in ascending numerical order. Reply: labels, ordered per the request. II, III, IV, I
(II: 0.0251 nM, III: 0.2 nM, IV: 0.398 nM, I: 2.51 nM)
